# System: ATP;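 further: ATP exposure 15 min at 22 °C before imaging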
# assay details: switch fluorescence ratio, 500 uM ATP over buffer (Cy3 cluster intensity, sum of 5 cycles each) (fold (ratio)); higher = stronger signal-on switching upon ATP binding; sequences stand for … in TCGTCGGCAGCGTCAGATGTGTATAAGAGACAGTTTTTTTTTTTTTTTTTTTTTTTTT…TC
# condition description: aptamer strand: ATP DNA aptamer (quencher-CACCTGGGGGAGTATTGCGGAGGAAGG + anchor), 100 nM annealed; ATP concentration: 500 uM

seq string: ATAATGGCCT
switch fluorescence ratio: 1.02
--
seq string: ATTCCGTATT
switch fluorescence ratio: 1.44
--
seq string: GGGGGAGACT
switch fluorescence ratio: 1
--
seq string: GATCATGTTT
switch fluorescence ratio: 0.982
--
seq string: AAGGTTTCAA
switch fluorescence ratio: 0.985
--
seq string: TTAGGGTGAT
switch fluorescence ratio: 0.974
--
seq string: TATGTTTGAA
switch fluorescence ratio: 0.984
--
seq string: ATGTGATGCT
switch fluorescence ratio: 1.01
--
seq string: TATGCTTTGG
switch fluorescence ratio: 0.98
--
seq string: AGGCCCTGTT
switch fluorescence ratio: 0.989
--
seq string: TTTGGGCTTG
switch fluorescence ratio: 1.01
--
seq string: TTAAGTACGA
switch fluorescence ratio: 1.27
--
seq string: CCGGGTGAAG
switch fluorescence ratio: 1.07
--
seq string: TCCAATTGGA
switch fluorescence ratio: 0.985
--
seq string: AAAGGCACCC
switch fluorescence ratio: 1.05
--
seq string: CCGTATGGAG
switch fluorescence ratio: 0.996
--
seq string: GAAAAAATCC
switch fluorescence ratio: 1.29
--
seq string: TGTGTATGGG
switch fluorescence ratio: 1.19
--
seq string: AGGAAAATTT
switch fluorescence ratio: 1
--
seq string: TTGCATGCCG
switch fluorescence ratio: 0.972
--
seq string: GCGGGATGCA
switch fluorescence ratio: 0.993
--
seq string: AGCTGGTCCG
switch fluorescence ratio: 1.02
--
seq string: GCTCGCCTGA
switch fluorescence ratio: 0.995
--
seq string: CGCGTTCGCT
switch fluorescence ratio: 1.02
--
seq string: GACTAAAGTA
switch fluorescence ratio: 1.05
--
seq string: GTAAGGGGGC
switch fluorescence ratio: 0.984
--
seq string: GGTCCGTAGG
switch fluorescence ratio: 1.01
--
seq string: CAGGATTGTT
switch fluorescence ratio: 1.02
--
seq string: CTTTCGTCTG
switch fluorescence ratio: 1.01
--
seq string: TTGGGCTTGG
switch fluorescence ratio: 0.997
--
seq string: AGGGGAAAGG
switch fluorescence ratio: 0.984
--
seq string: TTGCTATTCG
switch fluorescence ratio: 0.992
--
seq string: GGCCCGGCAC
switch fluorescence ratio: 1.01
--
seq string: GTTCGGGGGT
switch fluorescence ratio: 0.986
--
seq string: GGGCCATATT
switch fluorescence ratio: 0.963
--
seq string: GGGGTAGAAA
switch fluorescence ratio: 0.969
--
seq string: GCAGATGCCT
switch fluorescence ratio: 1
--
seq string: AAAATGTAGA
switch fluorescence ratio: 0.992
--
seq string: ACTTGGCATC
switch fluorescence ratio: 1.13
--
seq string: AGTCGGGAGA
switch fluorescence ratio: 1.01
--
seq string: AAGTCGCATA
switch fluorescence ratio: 1.04
--
seq string: TTTGGTCGGA
switch fluorescence ratio: 1.02
--
seq string: ATGACGAAGC
switch fluorescence ratio: 1.57
--
seq string: AATGGAGGGA
switch fluorescence ratio: 0.974
--
seq string: TATGTACACA
switch fluorescence ratio: 1.02
--
seq string: CCTGGCCAGC
switch fluorescence ratio: 0.978
--
seq string: CCGGAGGAGA
switch fluorescence ratio: 1.06
--
seq string: GCGCCAGTTT
switch fluorescence ratio: 0.992
--
seq string: TGAGCACGGG
switch fluorescence ratio: 1.03
--
seq string: ATGTAACCGT
switch fluorescence ratio: 1.01
--
seq string: TGCGAGGCGT
switch fluorescence ratio: 0.997
--
seq string: GCTCTATTTT
switch fluorescence ratio: 0.997
--
seq string: GGTAGTGAGC
switch fluorescence ratio: 1.02
--
seq string: AGAAATTGGA
switch fluorescence ratio: 1.02
--
seq string: ATTCGCTGCT
switch fluorescence ratio: 1
--
seq string: ACGTAGTTTG
switch fluorescence ratio: 1.04
--
seq string: ACAGCTGAGC
switch fluorescence ratio: 0.999
--
seq string: GGGGAATGAA
switch fluorescence ratio: 1.02
--
seq string: AGAGAGGACG
switch fluorescence ratio: 1.02
--
seq string: CGTGTAAGGG
switch fluorescence ratio: 0.974
--
seq string: GATTGTGGAC
switch fluorescence ratio: 1.1
--
seq string: TTCGGAGTCT
switch fluorescence ratio: 0.985
--
seq string: CGATAGGGGT
switch fluorescence ratio: 1.05
--
seq string: TAAACCTGTG
switch fluorescence ratio: 1.05
--
seq string: CCTTATTTTC
switch fluorescence ratio: 0.998
--
seq string: GAAGCTAGTA
switch fluorescence ratio: 1.02
--
seq string: GGTATTGGCC
switch fluorescence ratio: 0.987
--
seq string: AATAATCGGC
switch fluorescence ratio: 0.994
--
seq string: GGGGGTATGA
switch fluorescence ratio: 1.02
--
seq string: GGGGATAGT
switch fluorescence ratio: 1
--
seq string: AACTATAATG
switch fluorescence ratio: 0.997
--
seq string: TTAGATGAAT
switch fluorescence ratio: 1
--
seq string: CGGGAATAAA
switch fluorescence ratio: 0.993
--
seq string: TTTGCATTAG
switch fluorescence ratio: 1.11
--
seq string: CAGGATAACT
switch fluorescence ratio: 1
--
seq string: TAAAGATATC
switch fluorescence ratio: 0.972
--
seq string: AAAGAGGGTA
switch fluorescence ratio: 0.963
--
seq string: GCCCTACAAC
switch fluorescence ratio: 0.998
--
seq string: TGATTGAAGC
switch fluorescence ratio: 1.03
--
seq string: TTTTGAAGGG
switch fluorescence ratio: 1
--
seq string: GAAGCCGGAC
switch fluorescence ratio: 1.12
--
seq string: ACCCAATTTT
switch fluorescence ratio: 1.03
--
seq string: TGCTCTAAGG
switch fluorescence ratio: 1.02
--
seq string: ATTAGATGTT
switch fluorescence ratio: 0.964
--
seq string: CGGAGAAGGG
switch fluorescence ratio: 0.974
--
seq string: TTCAAGGGGG
switch fluorescence ratio: 1
